Origin of values: PubChem BioAssay AID1963860

Test system: CN0375-F725-PDC KRAS spheroid viability
test: Anticancer human tumor CN0375-F725-PDC patient-derived colon carcinoma cell line growth inhibition [KRAS2]
stated_conditions: second compound 0.1 µM; first compound 0.01 µM; hits give low values; spheroids with HUVEC and MSC
Give measured viability, T/C for each item. Keep answers brief.
Return type: number; implicit unit %.

stdin: Which viability, T/C is reported for this compound? Cn1ncnc1[C@H]1c2n[nH]c(=O)c3cc(F)cc(c23)N[C@@H]1c1ccc(F)cc1 + C=CC(=O)N1CCN(c2nc(OCC3CCCN3C)nc3c2CCN(c2cccc4cccc(C)c24)C3)CC1CC#N
stdout: 94.3

stdin: Now consider CC1COCCN1c1cc(-c2ccnn2C)c2ccnc(-c3ccn[nH]3)c2n1 (stereo not drawn) + COc1cc2nc(C)nc(NC(C)c3cc(N)cc(C(F)(F)F)c3)c2cc1OC1CCOC1 and answer again.
stdout: 101

stdin: Do the same for CCN1CCN(Cc2ccc(Nc3ncc(F)c(-c4cc(F)c5nc(C)n(C(C)C)c5c4)n3)nc2)CC1 + C=CC(=O)N1CCN(c2nc(=O)n(-c3c(C)ccnc3C(C)C)c3nc(-c4c(O)cccc4F)c(F)cc23)C(C)C1 please
stdout: 96.2

----------
Tested on: CN0375-F725-PDC KRAS spheroid viability
test: Anticancer human tumor CN0375-F725-PDC cell line growth inhibition [KRAS2];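 further: spheroids exposed to agents for 7 days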
stated_conditions: second compound 0.1 µM; first compound 0.316 µM; hits give low values; spheroids with HUVEC and MSC
Give viability, T/C for every item shown.

stdin: What value of viability, T/C on CN0375-F725-PDC KRAS spheroid viability does O=C(c1cc(Cc2n[nH]c(=O)c3ccccc23)ccc1F)N1CCN(C(=O)C2CC2)CC1 + C=CC(=O)N1CCN(c2nc(=O)n(-c3c(C)ccnc3C(C)C)c3nc(-c4c(O)cccc4F)c(F)cc23)C(C)C1 have?
stdout: 99.6%

stdin: Do the same for CC(C)NCC(C(=O)N1CCN(c2ncnc3c2C(C)CC3O)CC1)c1ccc(Cl)cc1 (stereo not given) + CNCc1ccccc1-c1csc(C(C)Nc2nc(C)nc3cc(OC)c(OC)cc23)c1 please
stdout: 93.1%

stdin: And what about the molecule COc1cc2nccc(Oc3ccc(NC(=O)C4(C(=O)Nc5ccc(F)cc5)CC4)cc3)c2cc1OC + C=CC(=O)N1CCN(c2nc(=O)n(-c3c(C)ccnc3C(C)C)c3nc(-c4c(O)cccc4F)c(F)cc23)C(C)C1 ?
stdout: 96.3%

stdin: Now the molecule CCN1CCN(Cc2ccc(Nc3ncc(F)c(-c4cc(F)c5nc(C)n(C(C)C)c5c4)n3)nc2)CC1 + CNCc1ccccc1-c1csc(C(C)Nc2nc(C)nc3cc(OC)c(OC)cc23)c1
stdout: 102%

stdin: Similarly, CCN1CCN(Cc2ccc(Nc3ncc(F)c(-c4cc(F)c5nc(C)n(C(C)C)c5c4)n3)nc2)CC1 + CC1OCC2(CCN(c3cnc(Sc4ccnc(N)c4Cl)c(N)n3)CC2)C1N ?
stdout: 95.7%

----------
System: CN0375-F725-PDC KRAS spheroid viability
test: Anticancer human tumor CN0375-F725-PDC cell line growth inhibition [KRAS2];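 further: spheroids exposed to agents for 7 days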
stated_conditions: second compound 0.316 µM; first compound 1 µM; hits give low values; spheroids with HUVEC and MSC
Assign viability, T/C to each entry below.
Give your result in % as a bare value.

stdin: Look at this compound and give its reported viability, T/C. Cn1nccc1Nc1nccc(-c2cc3c(s2)C(C)(C)N(CCN2CCOCC2)C3=O)n1 + CNCc1ccccc1-c1csc(C(C)Nc2nc(C)nc3cc(OC)c(OC)cc23)c1
stdout: 53

stdin: Also CC1OCC2(CCN(c3cnc(Sc4ccnc(N)c4Cl)c(N)n3)CC2)C1N (stereo not given) + COc1cc2nc(C)nc(NC(C)c3cc(N)cc(C(F)(F)F)c3)c2cc1OC1CCOC1 , if possible.
stdout: 77.8

stdin: Also, CC(C)NCC(C(=O)N1CCN(c2ncnc3c2C(C)CC3O)CC1)c1ccc(Cl)cc1 (stereo not given) + C=CC(=O)N1CCN(c2nc(=O)n(-c3c(C)ccnc3C(C)C)c3nc(-c4c(O)cccc4F)c(F)cc23)C(C)C1 please.
stdout: 89

stdin: And O=C(c1cc(Cc2n[nH]c(=O)c3ccccc23)ccc1F)N1CCN(C(=O)C2CC2)CC1 + C=CC(=O)N1CCN(c2nc(OCC3CCCN3C)nc3c2CCN(c2cccc4cccc(C)c24)C3)CC1CC#N ?
stdout: 99.6

stdin: Next compound up: CCNC(=O)CC1N=C(c2ccc(Cl)cc2)c2cc(OC)ccc2-n2c(C)nnc21 (stereo not given) + CC1OCC2(CCN(c3cnc(Sc4ccnc(N)c4Cl)c(N)n3)CC2)C1N
stdout: 69.7

stdin: Proceed to CC(=O)OC12COC1CC(O)C1(C)C(=O)C(O)C3=C(C)C(OC(=O)C(O)C(NC(=O)OC(C)(C)C)c4ccccc4)CC(O)(C(OC(=O)c4ccccc4)C21)C3(C)C (stereo not given) + C=CC(=O)N1CCN(c2nc(=O)n(-c3c(C)ccnc3C(C)C)c3nc(-c4c(O)cccc4F)c(F)cc23)C(C)C1
stdout: 85.7

stdin: Entry to check: CC1OCC2(CCN(c3cnc(Sc4ccnc(N)c4Cl)c(N)n3)CC2)C1N (stereo not given) + C=CC(=O)N1CCN(c2nc(OCC3CCCN3C)nc3c2CCN(c2cccc4cccc(C)c24)C3)CC1CC#N
stdout: 78.3

stdin: Another compound to look at: CC(C)NCC(C(=O)N1CCN(c2ncnc3c2C(C)CC3O)CC1)c1ccc(Cl)cc1 (stereo not given) + CNCc1ccccc1-c1csc(C(C)Nc2nc(C)nc3cc(OC)c(OC)cc23)c1
stdout: 85.2

stdin: Next: CCN1CCN(Cc2ccc(Nc3ncc(F)c(-c4cc(F)c5nc(C)n(C(C)C)c5c4)n3)nc2)CC1 + CNCc1ccccc1-c1csc(C(C)Nc2nc(C)nc3cc(OC)c(OC)cc23)c1
stdout: 58.9

stdin: CC(C)NCC(C(=O)N1CCN(c2ncnc3c2C(C)CC3O)CC1)c1ccc(Cl)cc1 (stereo not given) + C=CC(=O)N1CCN(c2nc(OCC3CCCN3C)nc3c2CCN(c2cccc4cccc(C)c24)C3)CC1CC#N , same question.
stdout: 87.8
